Experiment: in vivo
Details: Lewis, rat, in vivo
MEASURED_ENDPOINT: MTD at 5 days (mg/kg)
// note: answer is a bare numeric in mg/kg

Request: Fill in: MTD at 5 days of "N[C@@H](CCC(=O)O)C(=O)N1CCC[C@H]1B(O)O" is ___
Response: 15

====

System: Lewis rats
Assay: in vivo
Settings: Lewis rats, single dose, 5 days observation
Parameter threshold = 200 µg/kg. Response is Met when MTD (maximum tolerated dose) meets or exceeds it, else Not met.

Some entries whose results are on file:
Request: Could you tell me if the measured MTD (maximum tolerated dose) of CSCC[C@H](N)C(=O)N1CCC[C@H]1B(O)O [Met-boroPro] reaches 200 µg/kg or more?
Response: Not met

Request: Determine whether measured MTD (maximum tolerated dose) meets or exceeds 200 µg/kg for CC[C@H](C)[C@H](N)C(=O)N1CCC[C@H]1B(O)O [Ile-boroPro]
Response: Not met

Request: Would you say C[C@@H](O)[C@H](N)C(=O)N1CCC[C@H]1B(O)O [Thr-boroPro] shows MTD (maximum tolerated dose) at minimum 200 µg/kg?
Response: Met

We now examine a further compound.
Request: For this compound, is measured MTD (maximum tolerated dose) 200 µg/kg or higher? CC(C)[C@H](N)C(=O)N1CCC[C@H]1B(O)O [Val-boroPro]
Response: Not met
